Task for the reader: assign each of the following molecules its reported growth.
System: MCF7 breast
Test: NCI-60 one-dose screen, 48 h (100 = growth as untreated, 0 = no growth, -100 = all killed)
Conditions: 10 µM unless noted
Description: Growth inhibition of the MCF7 human tumor cell line is measured as a screen for anti-cancer activity. Cells are grown in 96 well plates and exposed to the test compound for 48 hours. Compounds are tested at a single concentration, which is 10^-5 M for most compounds. The reported endpoint is percent growth (GI% or GIPRCNT), where numbers from 0 - 100% represent growth inhibition, and numbers from -100% - 0 represent cell death. For example, a value of 40 represents 60% growth inhibition. […]
About 83,000 compounds went through this panel and 20% of them were active in at least one assay; those are over-represented in the sample as a whole.
Only the number, expressed in %, is required.

`CC(=NCc1ccccc1)c1ccc(O)cc1O` has a reported growth of 97.8

`CC[C@@H]1NC(=O)[C@H]([C@H](O)[C@H](C)C/C=C/c2ccc(CN3C(=O)C(C)=C(C)C3=O)cc2)N(C)C(=O)[C@H](C(C)C)N(C)C(=O)[C@H](CC(C)C)N(C)C(=O)[C@H](CC(C)C)N(C)C(=O)[C@@H](C)NC(=O)[C@H](C)NC(=O)[C@H](CC(C)C)N(C)C(=O)[C@H](C(C)C)NC(=O)[C@H](CC(C)C)N(C)C(=O)CN(C)C1=O` has a reported growth of 50.9

C=C1CCC2C3(C)COC(c4ccc(NC(C)=O)cc4)OC3CCC2(C)C1C/C=C1/C(=O)OCC1O (stereo not drawn) has a reported growth of 42.5
